System: E. coli 250BE1 (SHV4)
Test: MIC, micro-dilution in liquid medium, β-lactamine with product at 5 mg/l
Type: cell-based
Settings: compound at 5 mg/l; Trial 7, 250BE1 E. coli SHV4; 24 hours at 37° C.
propertyMeasured: MIC of Cefotaxime in combination with the compound (µg/mL)
Expressed in µg/mL, but write only the number.

Solved cases below.
O=C(NCCc1ccncc1)[C@H]1CC[C@@H]2CN1C(=O)N2OS(=O)(=O)[O-].[Na+] (relative stereo)    0.6
CN(C)c1ccc(NC(=O)[C@H]2CC[C@@H]3CN2C(=O)N3OS(=O)(=O)[O-])cc1.[Na+] (relative stereo)    1.2
NC(=O)C(Cc1ccccc1)NC(=O)C1CCC2CN1C(=O)N2OS(=O)(=O)O (centres unmarked)    0.6
O=C(NCCc1cccnc1)[C@H]1CC[C@@H]2CN1C(=O)N2OS(=O)(=O)[O-].[Na+] (relative stereo)    0.3
O=C(NCc1ccccn1)[C@H]1CC[C@@H]2CN1C(=O)N2OS(=O)(=O)[O-].[Na+] (relative stereo)    0.08

Problem: Endpoint output: MIC of Cefotaxime in combination with the compound of NC(=O)COC(=O)C1CCC2CN1C(=O)N2OS(=O)(=O)O (centres unmarked) . Value?
Solution: 0.08

Problem: What does the data say about its MIC of Cefotaxime in combination with the compound? Entry: O=C(NCCc1ccccn1)[C@H]1CC[C@@H]2CN1C(=O)N2OS(=O)(=O)[O-].[Na+] (relative stereo)
Solution: 0.3

Problem: What value of MIC of Cefotaxime in combination with the compound has been recorded for this entry: NC(=O)c1cccc(NC(=O)[C@H]2CC[C@@H]3CN2C(=O)N3OS(=O)(=O)[O-])c1.[Na+] (relative stereo)
Solution: 0.08

Problem: Can you look up the measured MIC of Cefotaxime in combination with the compound of O=C(NCc1ccccc1)[C@H]1CC[C@@H]2CN1C(=O)N2OS(=O)(=O)[O-].[Na+] (relative stereo) for me?
Solution: 0.08

---

Test system: E. coli 250HT22 (Tem2)
Assay: MIC, micro-dilution in liquid medium, β-lactamine with product at 5 mg/l
Type: cell-based
Conditions: compound at 5 mg/l; Trial 3, 250HT22 Tem2; 24 hours at 37° C.
propertyMeasured: MIC of Piperacillin in combination with the compound (µg/mL)
Unit µg/mL implied. Number only.

Examples from the recorded data:
NC(=O)c1cccc(NC(=O)[C@H]2CC[C@@H]3CN2C(=O)N3OS(=O)(=O)[O-])c1.[Na+] (relative stereo)    20
O=C(NCCc1cccnc1)[C@H]1CC[C@@H]2CN1C(=O)N2OS(=O)(=O)[O-].[Na+] (relative stereo)    40
O=C(NCc1cccnc1)C1CCC2CN1C(=O)N2OS(=O)(=O)O (stereo not shown)    1.2

Problem: Look up MIC of Piperacillin in combination with the compound with E. coli 250HT22 (Tem2) for this compound: NC(=O)CNC(=O)C1CCC2CN1C(=O)N2OS(=O)(=O)O (stereo not shown)
Solution: 2.5

Problem: E. coli 250HT22 (Tem2) / MIC of Piperacillin in combination with the compound / O=C(NCc1ccncc1)[C@H]1CC[C@@H]2CN1C(=O)N2OS(=O)(=O)[O-].[Na+] (relative stereo) : value?
Solution: 2.5

Problem: Recall the recorded MIC of Piperacillin in combination with the compound for O=C(OCCc1ccccn1)[C@H]1CC[C@@H]2CN1C(=O)N2OS(=O)(=O)[O-].[Na+] (relative stereo) with E. coli 250HT22 (Tem2) and state it.
Solution: 40

---

Tested on: E. coli 250HT21 (Tem1)
Assay: MIC, micro-dilution in liquid medium, β-lactamine with product at 5 mg/l
Assay type: cell-based
Conditions: compound at 5 mg/l; Trial 2, 250HT21 E. coli Tem1; 24 hours at 37° C.
propertyMeasured: MIC of Cefotaxime in combination with the compound

O=C(NCc1ccncc1)[C@H]1CC[C@@H]2CN1C(=O)N2OS(=O)(=O)[O-].[Na+] (relative stereo)    <=0.04 μg/ml
O=C(NCc1cccnc1)C1CCC2CN1C(=O)N2OS(=O)(=O)O (stereo not shown)    <=0.04 μg/ml
CN(C)c1ccc(NC(=O)[C@H]2CC[C@@H]3CN2C(=O)N3OS(=O)(=O)[O-])cc1.[Na+] (relative stereo)    <=0.04 μg/ml
O=C(OCCc1ccncc1)[C@H]1CC[C@@H]2CN1C(=O)N2OS(=O)(=O)[O-].[Na+] (relative stereo)    <=0.04 μg/ml
O=C(NCCc1cccnc1)[C@H]1CC[C@@H]2CN1C(=O)N2OS(=O)(=O)[O-].[Na+] (relative stereo)    <=0.04 μg/ml
O=C(NCc1ccccc1)[C@H]1CC[C@@H]2CN1C(=O)N2OS(=O)(=O)[O-].[Na+] (relative stereo)    <=0.04 μg/ml

Problem: State its MIC of Cefotaxime in combination with the compound on E. coli 250HT21 (Tem1): NC(=O)[C@@H]1CC[C@@H]2CN1C(=O)N2OS(=O)(=O)O (relative stereo)
Solution: <=0.04 μg/ml

---

A collection of compounds and their measured IC50
Target: β-lactamase TEM1 (Escherichia coli, UniProt P62593)
Construct: The β-lactamases are isolated from bacterial strains which are resistant to penicillins and cephalosporins; endogenous in cells; host or cells: E. coli 250HT21 (natural producer; French-press lysate, 100,000 g supernatant)
Sequence (P62593 24-286 limits assumed): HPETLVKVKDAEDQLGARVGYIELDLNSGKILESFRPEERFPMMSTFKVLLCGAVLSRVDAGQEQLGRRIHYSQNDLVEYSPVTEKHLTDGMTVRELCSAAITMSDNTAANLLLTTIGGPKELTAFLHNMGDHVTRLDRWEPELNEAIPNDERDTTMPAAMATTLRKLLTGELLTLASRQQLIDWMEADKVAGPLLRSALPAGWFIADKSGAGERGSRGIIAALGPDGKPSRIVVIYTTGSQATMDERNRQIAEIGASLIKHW
Test: Inhibition of isolated β-lactamase Tem-1 (Nitrocefin hydrolysis)
Type: biochemical, E.coli 250HT21
Conditions: 100 μM Nitrocefin, 50 mM sodium phosphate buffer pH7.0, 37° C.
Note: unit nM is implicit; provide only the numeric part.

Please review the following examples before continuing.
CN(C)c1ccc(NC(=O)[C@H]2CC[C@@H]3CN2C(=O)N3OS(=O)(=O)[O-])cc1.[Na+] (relative stereo)    51
COC(=O)[C@@H]1CC[C@@H]2CN1C(=O)O2 (relative stereo) [Example 26c]    1100
O=C1OC2C=CCN1C2 (stereo not shown) [Example 22, 6-oxa-1-azabicyclo[3.2.1]oct-3-en-7-one]    5100
O=C(O)C1CCC2CN1C(=O)N2C(=O)c1ccccc1 (stereo not shown) [Example 29b]    460
NC(=O)C(NC(=O)[C@H]1CC[C@@H]2CN1C(=O)N2OS(=O)(=O)[O-])c1ccccc1.[Na+] (relative stereo)    18
NC(=O)Nc1cccc(NC(=O)[C@H]2CC[C@@H]3CN2C(=O)N3OS(=O)(=O)[O-])c1.[Na+] (relative stereo)    26

Shifting focus to the compound that follows.
Problem: Given the compound O=C(NCc1cccnc1)C1CCC2CN1C(=O)N2OS(=O)(=O)O (stereo not shown) , what is its reported IC50?
Solution: 31

---

System: E. cloacae 293HT6 (Class C)
Experiment: MIC, micro-dilution in liquid medium, β-lactamine with product at 5 mg/l
Type: cell-based
Conditions: compound at 5 mg/l; Trial 9, 293HT6 Class; 24 hours at 37° C.
Experimental: The operation is carried out as follows, using the so-called micro-dilution in liquid medium method. […] After incubation for 24 hours in a heating chamber at 37° C., the growth inhibition is evaluated by the absence of any bacterial development, which allows the minimal inhibitory concentrations (MIC) for each strain to be determined, expressed in milligrams/l.
propertyMeasured: MIC of Piperacillin in combination with the compound (µg/mL)
Your answer is read as µg/mL, so omit the unit and give the number.

Previously resolved entries follow.
NC(=O)COC(=O)C1CCC2CN1C(=O)N2OS(=O)(=O)O (stereo not shown)    2.5
O=C(NCc1ccccn1)[C@H]1CC[C@@H]2CN1C(=O)N2OS(=O)(=O)[O-].[Na+] (relative stereo)    5
O=C(NCCc1ccccn1)[C@H]1CC[C@@H]2CN1C(=O)N2OS(=O)(=O)[O-].[Na+] (relative stereo)    40

Next compound, MIC of Piperacillin in combination with the compound to be filled in.
Problem: For E. cloacae 293HT6 (Class C), provide MIC of Piperacillin in combination with the compound of O=C(NCc1ccncc1)[C@H]1CC[C@@H]2CN1C(=O)N2OS(=O)(=O)[O-].[Na+] (relative stereo) please.
Solution: 1.2

---

Test system: E. coli 250HT21 (Tem1)
Assay: MIC, micro-dilution in liquid medium, β-lactamine with product at 5 mg/l
Type: cell-based
Conditions: compound at 5 mg/l; Trial 2, 250HT21 E. coli Tem1; 24 hours at 37° C.
Method: The operation is carried out as follows, using the so-called micro-dilution in liquid medium method. […] After incubation for 24 hours in a heating chamber at 37° C., the growth inhibition is evaluated by the absence of any bacterial development, which allows the minimal inhibitory concentrations (MIC) for each strain to be determined, expressed in milligrams/l.
propertyMeasured: MIC of Cefotaxime in combination with the compound

NC(=O)c1cccc(NC(=O)[C@H]2CC[C@@H]3CN2C(=O)N3OS(=O)(=O)[O-])c1.[Na+] (relative stereo)    <=0.04 μg/ml
NC(=O)C(Cc1ccccc1)NC(=O)C1CCC2CN1C(=O)N2OS(=O)(=O)O (stereo not drawn)    <=0.04 μg/ml
O=C(NCc1ccccn1)[C@H]1CC[C@@H]2CN1C(=O)N2OS(=O)(=O)[O-].[Na+] (relative stereo)    <=0.04 μg/ml
